- Test system: N140
- procedure text: qHTS profiling for inhibitors of Plasmodium falciparum proliferation (AID 504749); also: nearly all actives have a fitted effect of over 60% in size
- conditions: P. falciparum in erythrocytes, SYBR Green DNA, 72 h; series mostly up to 28.7 µM
Results filed as inconclusive are left out. Active and inactive are the calls of the source. Calls follow the shape of the dose curve; as a rule, active = well fitted inhibition curve with a large enough effect; inconclusive = small, poorly fitted or top-dose-only effect; inactive = flat fitted curve, though single readings scatter.
# output must be one of true (active), false (inactive)

Challenge: Recorded test call requested for CC(=O)[C@]1(O)Cc2c(O)c3c(c(O)c2[C@@H](O[C@H]2C[C@H](N)[C@H](O)[C@H](C)O2)C1)C(=O)c1c(O)cccc1C3=O
Response given: true

Challenge: Recorded test call requested for O=C(O)[C@H](CC(=O)N1C[C@H]2CCCC[C@H]2C1)Cc1ccccc1
Response given: false

Challenge: Recorded test call requested for O=C(O)[C@H](O)[C@@H](O)[C@H](O)[C@H](O)CO
Response given: false

Challenge: Recorded test call requested for O=C(/C=C/c1ccccc1)NCCO
Response given: false

Next:
Challenge: Recorded test call requested for CCOc1ccc2nc(S(N)(=O)=O)sc2c1
Response given: false

Challenge: Recorded test call requested for O=C(O)c1ccccc1Nc1cccc(C(F)(F)F)c1
Response given: false

Challenge: Recorded test call requested for Cc1ccccc1CNc1ncnc2c1ncn2C1OC(CO)C(O)C1O (stereo not given)
Response given: false

Challenge: Recorded test call requested for CC(C(=O)O)c1ccc2c(c1)[nH]c1ccc(Cl)cc12 (stereo not given)
Response given: false

###

- procedure text: qHTS assay for measurement of the activity of small molecule inhibitors on Zika virus induced Caspase-3 activity in human iPSC derived neural progenitor cells (hNPCs) (AID 1224857); also: nearly all actives have a fitted effect of over 65% in size
- conditions: hNPCs ZIKV-induced caspase-3/7, Caspase-Glo luminescence, 6 h; series mostly up to 45.7 µM
- Method: National Center for Advancing Translational Sciences [NCATS] Johns Hopkins University School of Medicine […] The medium for hNPCs consists of DMEM/F12, N2 supplement (ThermoFisher, Cat.# 17502048), NEAA (ThermoFisher, Cat. # 11140050), 2 ug/ml heparin, 2 uM cyclopamine, and B27 (ThermoFisher, Cat. # 17504044). […] The luminescence intensity of the assay plates was measured using a ViewLux plate reader (PerkinElmer). […]
Inconclusive results are not listed. Calls of active or inactive are those of the source. The call rests on the fitted dose curve; in most records, active means well fitted inhibition curve with a large enough effect; inconclusive means small, poorly fitted or top-dose-only effect; inactive means no such curve, though single readings can be large or run the other way.
observable: outcome

Measured outcome, COC1=C(OC)C(=O)c2ccccc2C1=O : inactive

Measured outcome, c1ccc(-c2ccccn2)nc1 : inactive

Measured outcome, Brc1c(Br)c(Br)c2n[nH]nc2c1Br : inactive

Measured outcome, CC(C)NCC(O)COc1cccc2ccccc12 (stereo not drawn) : inactive

Measured outcome, C[N+](C)(C)CCOP(=O)(O)OP(=O)([O-])OC[C@H]1O[C@@H](n2ccc(N)nc2=O)[C@H](O)C1O (stereo partly drawn) : inactive

Next:
Measured outcome, NC(=O)C(c1ccccc1)(c1ccccc1)[C@@H]1CCN(CCc2ccc3c(c2)CCO3)C1 : inactive

Measured outcome, Cc1ccc(O)c(-n2nc3ccccc3n2)c1 : inactive

Measured outcome, N=C(N)N : inactive

Measured outcome, CC1CN(S(=O)(=O)c2cccc3cnccc23)CCN1 (stereo not drawn) : inactive

Measured outcome, N[C@H](CCCP(=O)(O)O)C(=O)O : inactive

Measured outcome, N[C@@H](CC(=O)O)C(=O)O : inactive

Measured outcome, CNC(=O)c1c(I)c(NC(=O)CCCCC(=O)Nc2c(I)c(C(=O)O)c(I)c(C(=O)NC)c2I)c(I)c(C(=O)O)c1I : inactive

Measured outcome, Cn1ncc(S(=O)(=O)Cc2ccccc2)c(Br)c1=O : inactive

Measured outcome, C=C[C@H]1CN2CC[C@@H]1C[C@@H]2[C@@H](O)c1ccnc2ccc(OC)cc12 : inactive

Measured outcome, COc1cc(OC)cc(-c2cc3cnc(N)nc3nc2NC(=O)NC(C)(C)C)c1 : inactive

Reference for the values: PubChem BioAssay (NCATS)
